- Tested on: 556581-035-R-J1-PDC complex spheroid growth;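 also: compound exposure lasted 7 days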
- protocol_text: Anticancer human tumor 556581-035-R-J1-PDC patient-derived ovarian carcinoma cell line growth inhibition [AhR]; active = viability on the fitted dose curve at most 10% of control; inactive = the rest
- experimental_parameters: second compound 0.316 µM; first compound 0.0949 µM
Outcomes: active, inactive

compound: Nc1ncn(C2CC(O)C(CO)S2)c(=O)n1 (stereo not given) + Cc1cncc(-c2nc(NCCc3c[nH]c4ccccc34)c3ncn(C(C)C)c3n2)c1
study_target: 556581-035-R-J1-PDC complex spheroid growth;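 also: compound exposure lasted 7 days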
class: inactive
//
compound: O=C(C=Cn1cnc(-c2cc(C(F)(F)F)cc(C(F)(F)F)c2)n1)NNc1cnccn1 + Cc1cncc(-c2nc(NCCc3c[nH]c4ccccc34)c3ncn(C(C)C)c3n2)c1
study_target: 556581-035-R-J1-PDC complex spheroid growth;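 also: compound exposure lasted 7 days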
class: inactive
//
compound: CCc1c2c(nc3ccc(O)cc13)-c1cc3c(c(=O)n1C2)COC(=O)[C@]3(O)CC + CC(CO)NC(=O)c1cc(-c2ccc(Cl)cc2)nn(-c2cnn(C)c2)c1=O
study_target: 556581-035-R-J1-PDC complex spheroid growth;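 also: compound exposure lasted 7 days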
class: inactive
//
compound: Nc1ncn(C2CC(O)C(CO)S2)c(=O)n1 (stereo not given) + CC(CO)NC(=O)c1cc(-c2ccc(Cl)cc2)nn(-c2cnn(C)c2)c1=O
study_target: 556581-035-R-J1-PDC complex spheroid growth;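 also: compound exposure lasted 7 days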
class: inactive
//
compound: O=C(C=Cn1cnc(-c2cc(C(F)(F)F)cc(C(F)(F)F)c2)n1)NNc1cnccn1 + Cc1ccccc1N=Nc1ccc(NC(=O)c2ccnn2C)c(C)c1
study_target: 556581-035-R-J1-PDC complex spheroid growth;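 also: compound exposure lasted 7 days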
class: inactive
//
compound: CCN(c1cc(-c2ccc(CN3CCOCC3)cc2)cc(C(=O)NCc2c(C)cc(C)[nH]c2=O)c1C)C1CCOCC1 + Cc1cncc(-c2nc(NCCc3c[nH]c4ccccc34)c3ncn(C(C)C)c3n2)c1
study_target: 556581-035-R-J1-PDC complex spheroid growth;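 also: compound exposure lasted 7 days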
class: inactive
//
compound: CC(C)CC(NC(=O)C(Cc1ccccc1)NC(=O)c1cnccn1)B(O)O (stereo not given) + Cc1ccccc1N=Nc1ccc(NC(=O)c2ccnn2C)c(C)c1
study_target: 556581-035-R-J1-PDC complex spheroid growth;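 also: compound exposure lasted 7 days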
class: active
//
compound: CC(C)CC(NC(=O)C(Cc1ccccc1)NC(=O)c1cnccn1)B(O)O (stereo not given) + Cc1cncc(-c2nc(NCCc3c[nH]c4ccccc34)c3ncn(C(C)C)c3n2)c1
study_target: 556581-035-R-J1-PDC complex spheroid growth;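 also: compound exposure lasted 7 days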
class: active
//
compound: Nc1ncn(C2CC(O)C(CO)S2)c(=O)n1 (stereo not given) + Cc1ccccc1N=Nc1ccc(NC(=O)c2ccnn2C)c(C)c1
study_target: 556581-035-R-J1-PDC complex spheroid growth;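 also: compound exposure lasted 7 days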
class: inactive
//
compound: O=C(C=Cn1cnc(-c2cc(C(F)(F)F)cc(C(F)(F)F)c2)n1)NNc1cnccn1 + CC(CO)NC(=O)c1cc(-c2ccc(Cl)cc2)nn(-c2cnn(C)c2)c1=O
study_target: 556581-035-R-J1-PDC complex spheroid growth;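 also: compound exposure lasted 7 days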
class: inactive
//
compound: CCc1c2c(nc3ccc(O)cc13)-c1cc3c(c(=O)n1C2)COC(=O)[C@]3(O)CC + Cc1cncc(-c2nc(NCCc3c[nH]c4ccccc34)c3ncn(C(C)C)c3n2)c1
study_target: 556581-035-R-J1-PDC complex spheroid growth;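 also: compound exposure lasted 7 days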
class: inactive
//
compound: CC(C)CC(NC(=O)C(Cc1ccccc1)NC(=O)c1cnccn1)B(O)O (stereo not given) + CC(CO)NC(=O)c1cc(-c2ccc(Cl)cc2)nn(-c2cnn(C)c2)c1=O
study_target: 556581-035-R-J1-PDC complex spheroid growth;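 also: compound exposure lasted 7 days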
class: active
//
compound: CCc1c2c(nc3ccc(O)cc13)-c1cc3c(c(=O)n1C2)COC(=O)[C@]3(O)CC + Cc1ccccc1N=Nc1ccc(NC(=O)c2ccnn2C)c(C)c1
study_target: 556581-035-R-J1-PDC complex spheroid growth;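 also: compound exposure lasted 7 days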
class: inactive
//
compound: CCN(c1cc(-c2ccc(CN3CCOCC3)cc2)cc(C(=O)NCc2c(C)cc(C)[nH]c2=O)c1C)C1CCOCC1 + CC(CO)NC(=O)c1cc(-c2ccc(Cl)cc2)nn(-c2cnn(C)c2)c1=O
study_target: 556581-035-R-J1-PDC complex spheroid growth;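 also: compound exposure lasted 7 days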
class: inactive
//
compound: CCN(c1cc(-c2ccc(CN3CCOCC3)cc2)cc(C(=O)NCc2c(C)cc(C)[nH]c2=O)c1C)C1CCOCC1 + Cc1ccccc1N=Nc1ccc(NC(=O)c2ccnn2C)c(C)c1
study_target: 556581-035-R-J1-PDC complex spheroid growth;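 also: compound exposure lasted 7 days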
class: inactive
